Molecular target: T1, biotin-MBP-tagged AtHAB1 (residues 172-511), Q9CAJ0
T1 chain: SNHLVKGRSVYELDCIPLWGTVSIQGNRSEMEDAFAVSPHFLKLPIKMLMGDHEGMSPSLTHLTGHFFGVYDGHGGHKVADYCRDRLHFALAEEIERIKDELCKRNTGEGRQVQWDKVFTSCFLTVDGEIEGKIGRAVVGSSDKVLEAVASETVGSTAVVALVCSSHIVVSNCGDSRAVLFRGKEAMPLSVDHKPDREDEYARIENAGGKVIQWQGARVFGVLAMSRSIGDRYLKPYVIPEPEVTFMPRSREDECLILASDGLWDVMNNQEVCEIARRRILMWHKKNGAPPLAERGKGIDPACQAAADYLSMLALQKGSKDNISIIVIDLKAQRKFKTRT
Test: AlphaScreen
Details: chain shown with the change; ABA (5 μM); parent: est. 17000; read off a plot
# key: entry, value: response (photon counts)
Please respond with just the number, no unit label.

The examples below pair each entry with its known result.
binder	measuredEndpoint	readoutNumber
H6-SUMO-tagged FePYR1 H73P (protein) MEQQPAAAEPEVPAGLGLTAAEYAELQPTVEAYHRYAVGPGQCSSLVAQRIEAPAAAVWAIVRRFDCPQVYKPFIRSCALRPDPDAGDELRPGRLREVSVISGLPASTSTERLDLLDDARRAFGFTITGGEHRLANYRSVTTVSELAPAAPAKICTVVLESYVVDVPEGNSEEDTRLFADTVVRLNLQKLKSLAEANATSAAAQATPPPQAE	response (photon counts)	15000
H6-SUMO-tagged FePYR1 I127A (protein) MEQQPAAAEPEVPAGLGLTAAEYAELQPTVEAYHRYAVGPGQCSSLVAQRIEAPAAAVWAIVRRFDCPQVYKHFIRSCALRPDPDAGDELRPGRLREVSVISGLPASTSTERLDLLDDARRAFGFTATGGEHRLANYRSVTTVSELAPAAPAKICTVVLESYVVDVPEGNSEEDTRLFADTVVRLNLQKLKSLAEANATSAAAQATPPPQAE	response (photon counts)	9500

Consider the record given below.
Req: Record request: response (photon counts) value, item H6-SUMO-tagged FePYR1 V182L (protein) MEQQPAAAEPEVPAGLGLTAAEYAELQPTVEAYHRYAVGPGQCSSLVAQRIEAPAAAVWAIVRRFDCPQVYKHFIRSCALRPDPDAGDELRPGRLREVSVISGLPASTSTERLDLLDDARRAFGFTITGGEHRLANYRSVTTVSELAPAAPAKICTVVLESYVVDVPEGNSEEDTRLFADTLVRLNLQKLKSLAEANATSAAAQATPPPQAE
Resp: 3300
